- System Under Test: recombinant GTase A961 (Arabidopsis thaliana)
- Construct: made in house; host or cells: E. coli
- Sequence (O82381 whole entry): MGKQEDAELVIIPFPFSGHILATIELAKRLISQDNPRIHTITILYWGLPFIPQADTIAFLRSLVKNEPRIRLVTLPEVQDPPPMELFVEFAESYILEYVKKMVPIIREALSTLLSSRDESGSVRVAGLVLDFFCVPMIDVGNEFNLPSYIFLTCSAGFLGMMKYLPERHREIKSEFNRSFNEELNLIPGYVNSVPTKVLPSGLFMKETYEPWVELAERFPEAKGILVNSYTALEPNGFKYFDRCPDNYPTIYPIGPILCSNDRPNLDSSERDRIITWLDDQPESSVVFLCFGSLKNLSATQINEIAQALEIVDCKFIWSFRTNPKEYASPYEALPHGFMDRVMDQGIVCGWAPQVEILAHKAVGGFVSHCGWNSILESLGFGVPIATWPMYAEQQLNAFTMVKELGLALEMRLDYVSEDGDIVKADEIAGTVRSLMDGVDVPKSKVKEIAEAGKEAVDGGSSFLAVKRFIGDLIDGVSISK
- Assay Protocol: Specific activity of recombinant GTase producing O-glucosides against lignin precursors (HPLC)
- Type: biochemical
- Experimental Setup: 30° C.; ND = not detected
Reported values of Specific activity of A961 (substrate converted to 4-O-glucoside) for individual entries
Experimental Endpoint: Specific activity of A961 (substrate converted to 4-O-glucoside) (nkat/mg)

# Molecule, Meas Value
rows = [
    ("COc1cc(/C=C/C=O)cc(OC)c1O", 0.57),
    ("COc1cc(/C=C/C=O)ccc1O", 0.16),
    ("COc1cc(/C=C/C(=O)O)cc(OC)c1O", 0.01),
    ("O=C/C=C/c1ccc(O)cc1", 0.01),
    ("O=C(O)C=Cc1ccc(O)c(O)c1 [Caffeic acid, 3,4-dihydroxycinnamic acid]", 0.07),
    ("COc1cc(/C=C/CO)cc(OC)c1O", 0.35),
    ("O=C(O)/C=C/c1ccc(O)cc1", 0.01),
    ("COc1cc(/C=C/CO)ccc1O", 0.57),
]
